- experimentalSystem: Endoplasmic reticulum aminopeptidase 1 (ERAP1) (UniProt Q9NZ08 1-941, limits assumed)
- Sequence (Q9NZ08 whole entry): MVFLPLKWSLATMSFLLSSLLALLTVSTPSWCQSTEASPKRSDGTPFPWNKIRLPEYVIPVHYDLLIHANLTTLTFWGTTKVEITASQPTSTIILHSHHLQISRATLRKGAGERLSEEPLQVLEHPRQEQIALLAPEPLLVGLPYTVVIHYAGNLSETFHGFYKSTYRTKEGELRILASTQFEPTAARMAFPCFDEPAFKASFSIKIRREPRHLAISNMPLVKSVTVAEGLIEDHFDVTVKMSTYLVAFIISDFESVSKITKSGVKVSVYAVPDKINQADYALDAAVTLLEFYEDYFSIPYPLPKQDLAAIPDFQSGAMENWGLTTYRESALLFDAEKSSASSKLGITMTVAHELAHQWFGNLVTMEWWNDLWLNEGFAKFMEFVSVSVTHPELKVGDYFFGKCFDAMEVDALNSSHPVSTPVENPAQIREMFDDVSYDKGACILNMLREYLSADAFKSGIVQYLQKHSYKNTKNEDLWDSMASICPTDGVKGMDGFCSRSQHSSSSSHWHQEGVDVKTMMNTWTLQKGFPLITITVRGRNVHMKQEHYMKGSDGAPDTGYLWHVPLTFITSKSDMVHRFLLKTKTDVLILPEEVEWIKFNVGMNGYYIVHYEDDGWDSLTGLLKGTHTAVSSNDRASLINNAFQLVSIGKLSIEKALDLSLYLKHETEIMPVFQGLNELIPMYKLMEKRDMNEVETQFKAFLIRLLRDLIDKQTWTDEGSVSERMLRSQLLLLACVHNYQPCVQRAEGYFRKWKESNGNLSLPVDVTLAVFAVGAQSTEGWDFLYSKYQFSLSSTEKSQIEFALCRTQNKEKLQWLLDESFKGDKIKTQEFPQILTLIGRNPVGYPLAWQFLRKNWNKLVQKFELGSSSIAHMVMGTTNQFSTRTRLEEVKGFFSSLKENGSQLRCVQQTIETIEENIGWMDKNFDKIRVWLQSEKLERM
- testMethodNotes: cell-based or functional assay
metric: formation rate of … (SEQ ID NO: 19)(%)

Here are 7 binders together with their reported answers.
>>> measuredvalue("WCGLYDGMEHL [peptide WCGLYDGMEHL (SEQ ID NO: 182)]")
0
>>> measuredvalue("TCGLYDGMEHL [peptide TCGLYDGMEHL (SEQ ID NO: 181)]")
7.3
>>> measuredvalue("SCGLYDGMEHL [peptide SCGLYDGMEHL (SEQ ID NO: 180)]")
22.2
>>> measuredvalue("ACGLYDGMEHL [peptide ACGLYDGMEHL (SEQ ID NO: 185)]")
5.2
>>> measuredvalue("VCGLYDGMEHL [peptide VCGLYDGMEHL (SEQ ID NO: 184)]")
2.4
>>> measuredvalue("YCGLYDGMEHL [peptide YCGLYDGMEHL (SEQ ID NO: 183)]")
5.7
>>> measuredvalue("RCGLYDGMEHL [peptide RCGLYDGMEHL (SEQ ID NO: 186)]")
0

A: PCGLYDGMEHL [peptide PCGLYDGMEHL (SEQ ID NO: 179)]
B: QCGLYDGMEHL [peptide QCGLYDGMEHL (SEQ ID NO: 178)]
Which entry has a larger number for formation rate of … (SEQ ID NO: 19)(%), A or B ? Mark your answer with the label of the selected entry.
A
(A: 19.2%, B: 3.6%)

FYI, the data here is from patent US20200171136A1.
